Test system: NCI-H23 lung
Test: NCI-60 one-dose screen, 48 h
Details: 10 µM unless noted
Experimental: Growth inhibition of the NCI-H23 human Non-Small Cell Lung tumor cell line is measured as a screen for anti-cancer activity. Cells are grown in 96 well plates and exposed to the test compound for 48 hours. Compounds are tested at a single concentration, which is 10^-5 M for most compounds. The reported endpoint is percent growth (GI% or GIPRCNT), where numbers from 0 - 100% represent growth inhibition, and numbers from -100% - 0 represent cell death. […]
The panel holds about 83,000 compounds, 20% with a hit somewhere; the sample as a whole holds those more often. Calls of active or inactive are those of the source. The calls were made as follows: active = growth percent below 10; inactive = the rest.
Can you answer with just one of these options? active, inactive

>>> classification("COC(=O)CCCNCCCn1ccc2cc(NCc3cccc(-c4ccccc4)c3C)ccc21")
"inactive"
>>> classification("CNc1sc(S(=O)(=O)NC)nc1S(=O)(=O)c1ccc(C)cc1")
"inactive"

Asked: Outcome? Cc1ccc(C(=O)CSc2nnc(-c3ccc(-c4ccc(Cl)cc4)nc3C)o2)cc1
Given back: inactive

Asked: Outcome? Cc1nc(N)sc1-c1csc(Nc2ccc(C(F)(F)F)cc2)n1
Given back: inactive

Asked: Outcome? CN1CCC[C@]2(C)[C@H]3CC[C@@H]4[C@@H]5[C@H]6OC[C@@]5(CCC6(C)C)CC[C@@]4(C)[C@]3(C)CC[C@H]2C1(C)C
Given back: inactive

Asked: Outcome? Brc1cccc(-c2cc(-c3cnc4c(c3)OCCO4)n[nH]2)c1
Given back: inactive

Asked: Outcome? COc1cc(C(=O)c2cc(C(C)=O)c3c(C)cccn23)cc(OC)c1OC
Given back: inactive

Asked: Outcome? O=c1c2cc(-c3ccc(F)cc3F)ccc2n(Nc2ccccc2)c(=O)n1-c1cccc(C(F)(F)F)c1
Given back: active

Asked: Outcome? O=C1[C@@H]2Cc3c([nH]c4ccccc34)[C@H](c3ccc(Br)cc3)N2C(=O)CN1C1CCN(Cc2c(Cl)cccc2Cl)CC1
Given back: inactive
